tested on: Fibroblast; experiment: Incucyte cell viability with human fibroblast; format: toxicity, cell-based; settings: 6 h, 10 µM, compound concentration 10 uM, replicate number 1; also: unitless GR value; below 1 slowed growth and below 0 cell loss
# reported Growth Rate; entries follow
Please state the value as a number alone, without comment.

Below are worked cases with known answers.
# compound, result value
measured = [
    ("C[C@@H](CO)CCC[C@@H](C)[C@H]1CC[C@H]2[C@@H]3CC=C4C[C@@H](O)CC[C@]4(C)[C@H]3CC[C@]12C", 0.92),
    ("CN1CCN(C(=O)c2ccc3cc2OCCOCCNc2ccn4ncc-3c4n2)CC1", 0.73),
    ("O=C(Nc1cc(-c2cn[nH]c2)ccc1N1CCOCC1)c1ccc(-c2ccc3ncccc3c2)o1", -1),
    ("Cl.Cl.N=C(N)NCCC[C@H](NC(=O)CC1(CC(=O)N2CCN(C3c4ccccc4NC(=O)c4ccccc43)CC2)CCCC1)C(=O)NCCn1c(=O)n(-c2ccccc2)n(-c2ccccc2)c1=O (stereo partly drawn)", 0.27),
    ("Nc1ccc(-c2cnc(N)c(-c3ccc(Cl)cc3)c2)cn1", -1),
]

Problem: # input compound: `CC1(C)Cc2nc(C3CCCC3)c([C@@H](F)c3ccc(C(F)(F)F)cc3)c(C3CCCCC3)c2[C@@H](O)C1` ; wanted: its Growth Rate
Result: 0.71

Problem: # input compound: `Cc1cccc([C@H]2CC[C@@H](N3CCN(c4cccnc4)CC3)CC2)c1.O=C(O)C(F)(F)F.O=C(O)C(F)(F)F` ; wanted: its Growth Rate
Result: -0.37

Problem: # input compound: `CNc1ncc2cc(-c3ccc(-c4ncccc4F)cc3Cl)c(=O)n(C[C@H]3OC[C@H](N)CO3)c2n1` ; wanted: its Growth Rate
Result: 0.02
